meta.source: patent US20240010635A1

- Target: RET V804L (Homo sapiens, UniProt P07949, V804L)
- Construct: Recombinant proteins containing RET wt, RET (M918T) and RET (V804L) domains were purchased from Promega; purchased Promega V4473
- Sequence (P07949 724-1016 V804L limits assumed): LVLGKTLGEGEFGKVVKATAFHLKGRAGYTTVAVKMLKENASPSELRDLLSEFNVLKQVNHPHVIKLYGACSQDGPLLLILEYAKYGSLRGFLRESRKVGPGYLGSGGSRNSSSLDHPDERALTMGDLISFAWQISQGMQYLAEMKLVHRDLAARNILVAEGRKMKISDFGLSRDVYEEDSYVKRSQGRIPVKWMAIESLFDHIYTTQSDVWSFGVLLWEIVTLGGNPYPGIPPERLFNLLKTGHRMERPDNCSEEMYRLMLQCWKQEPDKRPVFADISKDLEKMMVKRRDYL
- Experiment: ADP-Glo kinase assay, RET V804L
- Type: biochemical
- Recorded conditions: recombinant RET (V804L), 120 min room temperature, read-out: Enzyme activity (IC50, nM) RET V804L
Value type: IC50 (nM)

- Compound: "O=C1Nc2ccc(F)cc2/C1=C1/Nc2ccccc2/C1=N\\OCCN1CC2(CNC2)C1 [Example 6]"
  Experimental result: 0.797
- Compound: "O=C1Nc2ccc(F)cc2/C1=C1/Nc2ccccc2/C1=N\\OCCN1C[C@H]2C[C@@H]1CN2 [Example 9]"
  Experimental result: 0.785
- Compound: "O=C1Nc2ccc(F)cc2/C1=C1/Nc2ccccc2/C1=N\\OCC(=O)N1C[C@H]2C[C@@H]1CN2 [Example 20]"
  Experimental result: 1.04
- Compound: "N[C@@H]1[C@H]2CN(CCO/N=C3/C(=C4/C(=O)Nc5ccc(F)cc54)Nc4ccccc43)C[C@@H]12 [Example 8]"
  Experimental result: 0.54
- Compound: "O=C(CO/N=C1/C(=C2/C(=O)Nc3ccccc32)Nc2ccccc21)N[C@H]1[C@@H]2CNC[C@@H]21 [Example 16]"
  Experimental result: 0.472
- Compound: "O=C1Nc2ccccc2/C1=C1/Nc2ccccc2/C1=N\\OCC(=O)N1CC2(CNC2)C1 [Example 15]"
  Experimental result: 0.37
- Compound: "O=C1Nc2ccc(Br)cc2/C1=C1/Nc2ccccc2/C1=N\\OCCN1C[C@H]2C[C@@H]1CN2 [Example 13]"
  Experimental result: 0.376
- Compound: "O=C1Nc2ccc(Cl)cc2/C1=C1/Nc2ccccc2/C1=N\\OCCN1C[C@H]2C[C@@H]1CN2 [Example 11]"
  Experimental result: 1.02
